Test system: CCRF-CEM
MEASUREMENT NOTES: Ratio of IC50 for human taxol-resistant CCRF-CEM cells to IC50 for human CCRF-CEM cells
Assay type: functional
Binary classification by Ratio IC50, with 4 as an inclusive lower bound for condition met; all other cases are condition not met.

- CHEMICAL STRING: "COc1ccc(Nc2ncnc3ccc(NC(=O)Nc4ccc(N(CCCl)CCCl)cc4)cc23)cc1Cl"
  CATEGORY: "condition met"

(Q) Quick check, Ratio IC50 >= 4? CC[C@]1(O)C[C@@H]2CN(CCc3c([nH]c4ccccc34)[C@@](C(=O)OC)(c3cc4c(cc3OC)N(C)[C@H]3[C@@](O)(C(=O)OC)[C@H](OC(C)=O)[C@]5(CC)C=CCN6CC[C@]43[C@@H]65)C2)C1
(A) condition met

(Q) Quick check, Ratio IC50 >= 4? O=C(Nc1ccc(N(CCCl)CCCl)cc1)Nc1ccc2ncnc(Nc3ccc(F)cc3)c2c1
(A) condition met

(Q) Quick check, Ratio IC50 >= 4? O=C(Nc1ccc(N(CCCl)CCCl)cc1)Nc1ccc2ncnc(Nc3cccc(Cl)c3F)c2c1
(A) condition not met

(Q) Quick check, Ratio IC50 >= 4? O=C(Nc1ccc(N(CCCl)CCCl)cc1)Nc1ccc2ncnc(Nc3ccc(OCc4ccccn4)c(Cl)c3)c2c1
(A) condition not met

(Q) Quick check, Ratio IC50 >= 4? O=C(Nc1ccc(N(CCCl)CCCl)cc1)Nc1ccc2ncnc(Nc3ccc(F)c(Cl)c3)c2c1
(A) condition not met

(Q) Quick check, Ratio IC50 >= 4? COc1cc(Nc2ncnc3ccc(NC(=O)Nc4ccc(N(CCCl)CCCl)cc4)cc23)cc(OC)c1OC
(A) condition met

(Q) Quick check, Ratio IC50 >= 4? COc1cccc(Nc2ncnc3ccc(NC(=O)Nc4ccc(N(CCCl)CCCl)cc4)cc23)c1
(A) condition not met

(Q) Quick check, Ratio IC50 >= 4? C#Cc1cccc(Nc2ncnc3ccc(NC(=O)Nc4ccc(N(CCCl)CCCl)cc4)cc23)c1
(A) condition met

(Q) Quick check, Ratio IC50 >= 4? O=C(Nc1ccc(N(CCCl)CCCl)cc1)Nc1ccc2ncnc(Nc3cccc(F)c3)c2c1
(A) condition not met

(Q) Quick check, Ratio IC50 >= 4? O=C(Nc1ccc(N(CCCl)CCCl)cc1)Nc1ccc2ncnc(Nc3ccc(Oc4ccccc4)cc3)c2c1
(A) condition not met

(Q) Quick check, Ratio IC50 >= 4? O=C(Nc1ccc(N(CCCl)CCCl)cc1)Nc1ccc2ncnc(Nc3cccc(Cl)c3)c2c1
(A) condition not met
